Hello, the source for this data is patent US9227973B2, in case you need it.

SYSTEM: recombinant human CL receptor/RAMP1 (CGRP receptor) (Homo sapiens (Human), UniProt O60894+Q16602)
Sequence (Q16602 23-461): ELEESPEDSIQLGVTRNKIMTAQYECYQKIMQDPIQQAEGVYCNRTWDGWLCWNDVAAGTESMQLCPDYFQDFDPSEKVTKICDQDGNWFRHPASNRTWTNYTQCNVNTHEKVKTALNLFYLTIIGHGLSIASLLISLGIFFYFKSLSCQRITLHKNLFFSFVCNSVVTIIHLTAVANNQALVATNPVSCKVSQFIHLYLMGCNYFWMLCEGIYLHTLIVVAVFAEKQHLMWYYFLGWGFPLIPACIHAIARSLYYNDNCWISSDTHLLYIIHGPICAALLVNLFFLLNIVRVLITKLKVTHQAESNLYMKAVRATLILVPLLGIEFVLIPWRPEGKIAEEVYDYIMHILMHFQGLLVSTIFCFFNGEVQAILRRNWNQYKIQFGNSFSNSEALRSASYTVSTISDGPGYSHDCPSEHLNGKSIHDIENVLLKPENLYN
Sequence (O60894 27-148): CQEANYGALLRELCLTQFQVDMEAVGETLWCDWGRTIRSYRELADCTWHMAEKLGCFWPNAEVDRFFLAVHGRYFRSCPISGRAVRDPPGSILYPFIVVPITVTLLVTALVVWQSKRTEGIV
TEST NAME: Recombinant receptor functional assay (Assay C), cAMP HTRF
Assay type: cell-based
EXPERIMENTAL PARAMETERS: Assay C: HEK 293 cells, 3,500 cells/well, human α-CGRP 1 nM, cAMP inflection point
Form field: IC50 (one value per entry).
METRIC: IC50 (µM)

COMPOUND: O=C(NC1COC(c2ccccc2)Cc2cccnc21)c1cnc2c(c1)C[C@@]1(C2)C(=O)Nc2ncccc21 (single isomer, unassigned; isomer a) [9 isomer A]
UNITS: µM
MEAS VALUE: 1.9
--
COMPOUND: O=C(NC1COC(c2ccccc2)Cc2cccnc21)c1cnc2c(c1)C[C@@]1(C2)C(=O)Nc2ncccc21 (single isomer, unassigned; isomer c) [9 isomer C]
UNITS: µM
MEAS VALUE: 1.1
--
COMPOUND: O=C(NC1COC(c2ccccc2)Cc2cccnc21)c1cnc2c(c1)C[C@@]1(C2)C(=O)Nc2ncccc21 (single isomer, unassigned; isomer b) [9 isomer B]
UNITS: µM
MEAS VALUE: 1.1

====

SYSTEM: recombinant human CL receptor/RAMP1 (CGRP receptor) (Homo sapiens (Human), UniProt O60894+Q16602)
TEST NAME: Recombinant receptor functional assay (Assay B), cAMP HTRF
Assay type: cell-based
EXPERIMENTAL PARAMETERS: Assay B: HEK 293 cells, 2,000 cells/well, human α-CGRP 1.2 nM, cAMP inflection point
pIC50: −log10 of the molar value.

COMPOUND: N[C@@H]1c2cccnc2[C@H](NC(=O)c2cnc3c(c2)C[C@@]2(C3)C(=O)Nc3ncccc32)CC[C@H]1c1cccc(F)c1F
pIC50: 9.03

COMPOUND: O=C(NC1CC(c2ccccc2)Cc2cccnc21)c1cnc2c(c1)C[C@]1(C2)C(=O)Nc2ncccc21 (single isomer, unassigned; isomer b) [5 isomer B]
pIC50: 5.34

COMPOUND: O=C(NC1CC(c2ccccc2)Cc2cccnc21)c1cnc2c(c1)C[C@]1(C2)C(=O)Nc2ncccc21 (single isomer, unassigned; isomer b) [6 isomer B]
pIC50: 6.82

COMPOUND: O=C(N[C@H]1CC[C@H](c2cccc(F)c2F)Cc2cccnc21)c1cnc2c(c1)C[C@@]1(C2)C(=O)Nc2ncccc21
pIC50: 6.42

COMPOUND: N[C@@H]1c2cccnc2[C@@H](NC(=O)c2cnc3c(c2)C[C@@]2(C3)C(=O)Nc3ncccc32)CC[C@H]1c1cccc(F)c1F
pIC50: 6.54

COMPOUND: O=C(NC1CC(c2ccccc2)Cc2cccnc21)c1cnc2c(c1)C[C@@]1(C2)C(=O)Nc2ncccc21 (single isomer, unassigned; isomer a) [6 isomer A]
pIC50: 7.11

COMPOUND: O=C(N[C@@H]1CC[C@@H](c2cccc(F)c2F)Cc2cccnc21)c1cnc2c(c1)C[C@@]1(C2)C(=O)Nc2ncccc21
pIC50: 8.35

COMPOUND: N[C@H]1c2cccnc2[C@H](NC(=O)c2cnc3c(c2)C[C@@]2(C3)C(=O)Nc3ncccc32)CC[C@H]1c1cccc(F)c1F
pIC50: 8.20

COMPOUND: N[C@H]1c2cccnc2[C@@H](NC(=O)c2cnc3c(c2)C[C@@]2(C3)C(=O)Nc3ncccc32)CC[C@H]1c1cccc(F)c1F
pIC50: 7.19

COMPOUND: O=C(NC1CC(c2ccccc2)Cc2cccnc21)c1cnc2c(c1)C[C@@]1(C2)C(=O)Nc2ncccc21 (single isomer, unassigned; isomer a) [5 isomer A]
pIC50: 7.66
